# Test system: CU-ACC2
# measurementDescription: area under concentration-response curve (viability) (AUC (a.u.)); higher = less active
# experimentalParameters: 48 h
Categorize each record by its area under concentration-response curve using class A = under 500, class B = from 500 up to 600, class C = 600 and over

Before answering, review these 5 worked examples.
compound	category
CC(C)NCC(O)c1ccc(N[S+](C)(=O)[O-])cc1 (stereo unspecified)	class C
Nc1nc(N)c2nc(CNc3ccc(C(=O)NC(CCC(=O)O)C(=O)O)cc3)cnc2n1 (stereo unspecified)	class B
CCC(C)N1\N=C/N(C1=O)C2=CC=C(C=C2)N3CCN(CC3)C4=CC=C(OC[C@H]5CO[C@@](C[N]6C=NC=N6)(O5)C7=CC=C(Cl)C=C7Cl)C=C4 (stereo partly specified)	class C
CC(C)C[C@H](CC(=O)O)C(=O)N[C@@H](Cc1c[nH]c2ccccc12)C(=O)N[C@@H](C)c1ccccc1	class C
CC1(COc2ccc3c(c2)ncn3-c2ccc3cccc(N4CCC(N)CC4)c3n2)COC1	class B

Would you mind sorting "C=CC(=O)Nc1ccc2ncnc(Nc3ccc(OCc4cccc(F)c4)c(Cl)c3)c2c1" into the appropriate category?
class B

Exercise: read the entry "CN1C[C@@H]2c3ccccc3Oc3ccc(Cl)cc3[C@H]2C1" and state which class it falls under.
class B

Hey, which category is "c1cncc(CN2CCC(n3ncc4c(N5CCOCC5)nc(-c5ccc6[nH]ccc6c5)nc43)CC2)c1" in, do you know?
class A

Note: place this compound into its band. Item: "COC(=O)Nc1nc2cc(Sc3ccccc3)ccc2[nH]1"
class A
